Give measured IC50 for each item. Keep answers brief.
Field format: number, assumed nM, no unit text.

Give S. aureus DHFR (Staphylococcus aureus) IC50 for `CCc1nc(N)nc(N)c1C#CCc1cc(OC)cc(-c2ccccc2)c1` 59

Give S. aureus DHFR (Staphylococcus aureus) IC50 for `CCc1nc(N)nc(N)c1C#CCc1cc(-c2ccncc2)ccc1OC` 21

Give S. aureus DHFR (Staphylococcus aureus) IC50 for `CCc1nc(N)nc(N)c1C#CCc1cccc(-c2ccccc2)c1` 28

Give S. aureus DHFR (Staphylococcus aureus) IC50 for `CCc1nc(N)nc(N)c1C#CCc1cccc(-c2cncnc2)c1` 35

Give S. aureus DHFR (Staphylococcus aureus) IC50 for CCc1nc(N)nc(N)c1C#CC(C)c1cc(-c2ccccc2)ccc1OC (stereo not drawn) 67

Give S. aureus DHFR (Staphylococcus aureus) IC50 for `COc1cc(-c2ccc(C)cc2)cc([C@@H](C)C#Cc2c(C)nc(N)nc2N)c1` 410

Give S. aureus DHFR (Staphylococcus aureus) IC50 for `CCc1nc(N)nc(N)c1C#CCc1cc(OC)cc(-c2ccncc2)c1` 12

Give S. aureus DHFR (Staphylococcus aureus) IC50 for COc1ccc(-c2ccccc2)cc1C(C)C#Cc1c(C)nc(N)nc1N (stereo not drawn) 75

Give S. aureus DHFR (Staphylococcus aureus) IC50 for COc1cc(-c2ccncc2)cc(C(C)C#Cc2c(C)nc(N)nc2N)c1 (stereo not drawn) 26

---

ASSAYED_TARGET: hDHFR (Homo sapiens (Human), UniProt P00374)
Sequence (P00374 whole entry): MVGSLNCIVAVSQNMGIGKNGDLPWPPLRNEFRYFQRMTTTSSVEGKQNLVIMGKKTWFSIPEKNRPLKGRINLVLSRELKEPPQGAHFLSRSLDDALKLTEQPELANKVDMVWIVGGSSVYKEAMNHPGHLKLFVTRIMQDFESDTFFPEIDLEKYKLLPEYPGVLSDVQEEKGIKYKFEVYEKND
PROCEDURE_SUMMARY: hDHFR enzyme inhibition assay
Format: biochemical
CONDITION_SET: Table 3; read-out: hDHFR IC50
EXPERIMENTAL_ENDPOINT: pIC50
Keep in mind that pIC50 stands for -log10 of concentration in molar terms.

GET /values?readout=pIC50&item= COc1cc(CC#Cc2c(C)nc(N)nc2N)cc(OC)c1OC [Compound 5] 6.40

---

Give measured Selectivity (h/Sa) for each item. Keep answers brief.
ASSAYED_TARGET: S. aureus DHFR (Staphylococcus aureus)
Type: biochemical
CONDITION_SET: IC50 (human)/IC50 (pathogen)
Respond numerically, and do not add a unit to the figure.

GET /values?readout=Selectivity (h/Sa)&item= COc1ccc(-c2ccccc2)cc1C(C)C#Cc1c(C)nc(N)nc1N (centres unmarked) 1.3

GET /values?readout=Selectivity (h/Sa)&item= `CCc1nc(N)nc(N)c1C#CCc1cccc(-c2cncnc2)c1` 5

GET /values?readout=Selectivity (h/Sa)&item= `CCc1nc(N)nc(N)c1C#CCc1cccc(-c2ccncc2)c1` 26

GET /values?readout=Selectivity (h/Sa)&item= `CCc1nc(N)nc(N)c1C#CCc1cccc(-c2ccccc2)c1` 10

GET /values?readout=Selectivity (h/Sa)&item= CCc1nc(N)nc(N)c1C#CC(C)c1cc(-c2ccccc2)ccc1OC (centres unmarked) 1.5

GET /values?readout=Selectivity (h/Sa)&item= `CCc1nc(N)nc(N)c1C#CCc1cccc(-c2cccnc2)c1` 9

GET /values?readout=Selectivity (h/Sa)&item= COc1cc(C(C)C#Cc2c(C)nc(N)nc2N)cc(N2CCOCC2)c1 (centres unmarked) 14

GET /values?readout=Selectivity (h/Sa)&item= `CCc1nc(N)nc(N)c1C#CCc1cc(-c2ccccc2)ccc1OC` 125

GET /values?readout=Selectivity (h/Sa)&item= `CCc1nc(N)nc(N)c1C#CCc1cc(OC)cc(-c2ccncc2)c1` 5

GET /values?readout=Selectivity (h/Sa)&item= `CCc1nc(N)nc(N)c1C#CCc1cc(-c2ccncc2)ccc1OC` 16

GET /values?readout=Selectivity (h/Sa)&item= `CCc1nc(N)nc(N)c1C#CCc1cc(OC)cc(-c2ccccc2)c1` 2.4
